# assay_details: Part 1: mobocertinib-itraconazole DDI study, plasma PK
# Type: in vivo, human
# assay_setup: human, plasma, oral, 20 mg, t½, Arithmetic Means (SD), mobocertinib 20 mg alone (reference), plasma; footnote a: mean (%CV)
endpoint_name: half-life (min)
Numeric only. Scale: min

Entry under review: C=CC(=O)Nc1cc(Nc2ncc(C(=O)OC(C)C)c(-c3cn(C)c4ccccc34)n2)c(OC)cc1N(C)CCN(C)C . Reported half-life?
1290

###

# assay_details: Part 1: mobocertinib-itraconazole DDI study, plasma PK
# Type: in vivo, human
# assay_setup: human, plasma, oral, AUC0-∞, Geometric Means (%CV), mobocertinib 20 mg + itraconazole 200 mg once daily (test), plasma
endpoint_name: AUC(0-inf) (ng·h/mL)
Numeric only. Scale: ng·h/mL

Entry under review: C=CC(=O)Nc1cc(Nc2ncc(C(=O)OC(C)C)c(-c3cn(C)c4ccccc34)n2)c(OC)cc1N(C)CCN(C)C . Reported AUC(0-inf)?
892

Data origin: paper PMC8453750
